Just for reference, patent US20250221966A1 is where these values come from.

I'd appreciate it if you could supply EC50 values for the items below.
Tgt: human RXFP1 (Homo sapiens, UniProt Q9HBX9)
Construct: expressed in transfected cells
Sequence (Q9HBX9 1-757): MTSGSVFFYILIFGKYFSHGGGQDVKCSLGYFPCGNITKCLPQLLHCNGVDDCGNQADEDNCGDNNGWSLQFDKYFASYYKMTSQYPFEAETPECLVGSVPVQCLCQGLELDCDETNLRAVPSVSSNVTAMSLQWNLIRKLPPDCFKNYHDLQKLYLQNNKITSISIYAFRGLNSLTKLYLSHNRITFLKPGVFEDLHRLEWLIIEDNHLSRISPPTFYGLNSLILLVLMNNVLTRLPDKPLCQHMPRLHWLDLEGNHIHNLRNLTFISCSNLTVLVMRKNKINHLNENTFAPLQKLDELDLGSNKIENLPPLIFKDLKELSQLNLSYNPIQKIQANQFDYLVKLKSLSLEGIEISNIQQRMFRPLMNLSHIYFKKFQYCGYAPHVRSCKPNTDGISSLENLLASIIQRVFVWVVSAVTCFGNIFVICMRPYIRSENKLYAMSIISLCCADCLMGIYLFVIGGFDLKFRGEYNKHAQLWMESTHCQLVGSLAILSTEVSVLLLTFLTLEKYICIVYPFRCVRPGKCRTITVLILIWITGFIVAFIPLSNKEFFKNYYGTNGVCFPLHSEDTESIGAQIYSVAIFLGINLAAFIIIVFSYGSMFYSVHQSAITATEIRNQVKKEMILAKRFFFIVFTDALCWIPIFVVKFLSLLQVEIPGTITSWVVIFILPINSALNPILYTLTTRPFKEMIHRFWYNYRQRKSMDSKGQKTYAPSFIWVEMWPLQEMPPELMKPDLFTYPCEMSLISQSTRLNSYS
Experimental Protocol: RXFP1 cAMP assay (hRXFP1 HEK293 cAMP assay, HTRF)
Assay type: cell-based
Experimental Parameters: HEK293 cells stably expressing human RXFP1, 30 min at room temperature, read-out: cAMP hRXFP1 HEK293 Assay EC50
Give the figure together with its unit, number first.

{"columns": ["Compound", "Reported Measurement"],
 "data": [
  ["COc1cc(F)c(F)cc1C(=O)N[C@@H]1C2CCC(/C2=C/c2cccc(F)c2)[C@@H]1C(=O)Nc1ccc(F)c(C(F)(F)F)c1 (some centres unmarked) [compound 30]", "55 nM"],
  ["COc1ccc(C2=NOC3CC(C(C)O)CC23)cc1C(=O)N[C@H]1[C@@H](C(=O)Nc2ccc(F)c(C(F)(F)F)c2)[C@H]2CC[C@@H]1/C2=C\\C1CC1 (some centres unmarked) [compound 843]", "0.9 nM"],
  ["COc1ccc(C2CCN(CC(C)(C)O)C2)cc1C(=O)N[C@@H]1C2CCC(C2=CC2CC2)[C@@H]1C(=O)Nc1ccc(F)c(C(F)(F)F)c1 (some centres unmarked) [compound 601]", "108 nM"]
]}

# batch size: 2; output EC50 per entry
1. COc1ccc(C2=NOC3COCC23)cc1C(=O)N[C@H]1[C@@H](C(=O)Nc2cc(OC(F)(F)F)ccc2F)[C@H]2CC[C@@H]1/C2=C\C1CC1 (some centres unmarked) [compound 762]
2. COc1ccc(-c2cc(C(NC(=O)C3CCOCC3)C(=O)O)ccc2F)cc1C(=O)N[C@H]1[C@@H](C(=O)Nc2ccc(F)c(C(F)(F)F)c2)[C@H]2CC[C@@H]1/C2=C\CCC(F)(F)F (some centres unmarked) [compound 940]

[A]
["2 nM", "4.1 nM"]
